# Assayed system: T1, human CD70, recombinant, N-terminally biotinylated (residues 39-193) (human, UniProt P32970 39-193, N-terminal biotin)
# T1 construct: range 39-193; the same entry is used there; also called biotinylated human CD70; CD70 biotin
# T1 sequence (looked up): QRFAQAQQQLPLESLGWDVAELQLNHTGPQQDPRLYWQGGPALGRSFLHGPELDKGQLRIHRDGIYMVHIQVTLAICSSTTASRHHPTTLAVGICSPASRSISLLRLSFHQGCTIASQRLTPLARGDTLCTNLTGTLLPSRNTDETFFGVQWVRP
# Assay info: CD27 blocking ELISA, 3 µM scFv, strep/HRP
Measured property: strep/HRP

>>> value("52-TC7-VIII-C02 (scFv, His-tagged) scFv: QVQLLESGGGVVQPGRSLRLSCAASGFTFSSYGMHWVRQAPGKGLEWVAVISYDGSNKYYADSVKGRFTISRDNSKNTLYLQMNSLRAEDTAVYYCAKGAYYYGSVSGMDVWGQGTTVTVSSGGSGGSGGSGGSSYELTQPVSVSVALGQTARLTCAGNNIGSKNVHWYQQKPSQAPVLVIYNDNIRPNFGIPERFSGSNSGNTATLTISSAQAGDEADYYCQVWDSSTAEVFGGGTKLTVL")
0.533
